# System: HCV replicon GT2a
# Test name: Cell-based HCV replicon assay, GT2a
# Settings: Hepatitis C virus, 72 h, replicon RNA level by real-time PCR, 3 days, read-out: GT2a EC90
# Experimental: To measure cell-based anti-HCV activity of compounds of the present invention, two complimentary assays were employed using various replicons. […] The replicon RNA level was measured using real time PCR (TaqMan® EZ RT-PCR, Applied Biosystems 403028) with the following primers and probes: […] The amount of HCV replicon RNA per cell is quantified using a linear regression curve for a known nanogram (ng) amount of HCV replicon total RNA. […]
Measured parameter: EC90 (pM)
A number alone suffices; assume pM.

Past entries and their recorded results:
COC(=O)N[C@H](C(=O)N1CCC[C@H]1c1ncc(-c2cc(F)c3c(c2)O[C@@H](c2ccc(C4CC4)s2)n2c-3cc3cc(-c4cnc([C@@H]5C[Si](C)(C)CN5C(=O)[C@H](N)c5ccccc5)[nH]4)ccc32)[nH]1)C(C)C [Compound 17]; 58.2
COC(=O)NC(C(=O)N1CCC[C@H]1c1ncc(-c2ccc3c(c2)cc2n3[C@H](c3cnc(C4CC4)s3)Oc3cc(-c4cnc([C@@H]5C[Si](C)(C)CN5C(=O)[C@H](N)c5ccccc5)[nH]4)cc(F)c3-2)[nH]1)C(C)C (stereo partly shown) [Compound 10]; 2.46
COC(=O)N[C@H](C(=O)N1CCC[C@H]1c1ncc(-c2cc(F)c3c(c2)O[C@@H](c2cnc(C4CC4)s2)n2c-3cc3cc(-c4cnc([C@@H]5C[Si](C)(C)CN5C(=O)C(N)c5ccccc5)[nH]4)ccc32)[nH]1)C(C)C (stereo partly shown) [Compound 12]; 1.52

Field: next compound
input: Give its EC90 value. Item: CN[C@@H](C(=O)N1C[Si](C)(C)C[C@H]1c1ncc(-c2cc(F)c3c(c2)O[C@@H](c2cnc(C4CC4)s2)n2c-3cc3cc(-c4cnc([C@@H]5CCCN5C(=O)C(NC(=O)OC)C(C)C)[nH]4)ccc32)[nH]1)c1ccccc1 (stereo partly shown) [Compound 11]
output: 1

====

# Test system: HCV replicon GT1a_L31V
# Test name: Cell-based HCV replicon assay, GT1a L31V
# Settings: Hepatitis C virus, 72 h, read-out: GT1a_L31V EC90
Measured parameter: EC90 (nM)
The reply should be a number in nM, with the unit left off.

Solved entries (count: 5):
COC(=O)N[C@H](C(=O)N1CCC[C@H]1c1ncc(-c2cc(F)c3c(c2)O[C@@H](c2cnc(C4CC4)s2)n2c-3cc3cc(-c4cnc([C@@H]5C[Si](C)(C)CN5C(=O)[C@@H](NC(=O)OC)C(C)C)[nH]4)ccc32)[nH]1)C(C)C; 0.0568
COC(=O)NC(C(=O)N1C[Si](C)(C)C[C@H]1c1ncc(-c2ccc3c(c2)cc2n3[C@H](c3cnc(C4CC4)s3)Oc3cc(-c4cnc([C@@H]5CCCN5C(=O)[C@@H](NC(=O)OC)C(C)C)[nH]4)cc(F)c3-2)[nH]1)C1CCOCC1 (some centres unmarked); 0.003
COC(=O)N[C@H](C(=O)N1CCC[C@H]1c1ncc(-c2cc(F)c3c(c2)O[C@@H](c2cnc(C4CC4)s2)n2c-3cc3cc(-c4cnc([C@@H]5C[Si](C)(C)CN5C(=O)C(N)c5ccccc5)[nH]4)ccc32)[nH]1)C(C)C (some centres unmarked); 0.149
COC(=O)NC(C(=O)N1CCC[C@H]1c1ncc(-c2ccc3c(c2)cc2n3[C@H](c3cnc(C4CC4)s3)Oc3cc(-c4cnc([C@@H]5C[Si](C)(C)CN5C(=O)[C@H](N)c5ccccc5)[nH]4)cc(F)c3-2)[nH]1)C(C)C (some centres unmarked); 0.859
CN[C@@H](C(=O)N1C[Si](C)(C)C[C@H]1c1ncc(-c2cc(F)c3c(c2)O[C@@H](c2cnc(C4CC4)s2)n2c-3cc3cc(-c4cnc([C@@H]5CCCN5C(=O)C(NC(=O)OC)C(C)C)[nH]4)ccc32)[nH]1)c1ccccc1 (some centres unmarked); 0.0963

input: Item under review: COC(=O)N[C@H](C(=O)N1CCC[C@H]1c1ncc(-c2ccc3c(c2)cc2n3[C@H](c3cnc(C4CC4)s3)Oc3cc(-c4cnc([C@@H]5C[Si](C)(C)CN5C(=O)[C@@H](NC(=O)OC)C(C)C)[nH]4)cc(F)c3-2)[nH]1)C(C)C . Reported EC90?
output: 0.0599

input: Quick check: EC90 of COC(=O)NC(C(=O)N1CCC[C@H]1c1ncc(-c2ccc3c(c2)cc2n3[C@H](c3cnc(C4CC4)s3)Oc3cc(-c4cnc([C@@H]5C[Si](C)(C)CN5C(=O)[C@@H](NC(=O)OC)C5CCC(F)(F)CC5)[nH]4)cc(F)c3-2)[nH]1)C(C)C (some centres unmarked) ?
output: 0.026

input: # input molecule: COC(=O)NC(C(=O)N1C[Si](C)(C)C[C@H]1c1ncc(-c2ccc3c(c2)cc2n3[C@H](c3ccc(C4CC4)s3)Oc3cc(-c4cnc([C@@H]5CCCN5C(=O)[C@@H](NC(=O)OC)C(C)C)[nH]4)cc(F)c3-2)[nH]1)C1CCOCC1 (some centres unmarked) ; wanted: its EC90
output: 0.0062

====

# Tested on: HCV replicon GT4
# Test name: Cell-based HCV replicon assay, GT4
# Settings: Hepatitis C virus, GT4, 72 h; replicon RNA level by real-time PCR, 3 days
Measured parameter: log10(EC90) (log10 of the value in pM)
Annotation: log10 of EC90, pM basis.

Please review the entries below; each comes with its answer.
COC(=O)N[C@H](C(=O)N1CCC[C@H]1c1ncc(-c2cc(F)c3c(c2)O[C@@H](c2cnc(C4CC4)s2)n2c-3cc3cc(-c4cnc([C@@H]5C[Si](C)(C)CN5C(=O)[C@@H](NC(=O)OC)[C@@H]5CCOC(C)(C)C5)[nH]4)ccc32)[nH]1)C(C)C; 0.05
COC(=O)NC(C(=O)N1CCC[C@H]1c1ncc(-c2ccc3c(c2)cc2n3[C@H](c3cnc(C4CC4)s3)Oc3cc(-c4cnc([C@@H]5C[Si](C)(C)CN5C(=O)[C@@H](NC(=O)OC)[C@@H]5CCOC(C)(C)C5)[nH]4)cc(F)c3-2)[nH]1)C(C)C (some centres unmarked); 0.01
COC(=O)N[C@H](C(=O)N1CCC[C@H]1c1ncc(-c2cc(F)c3c(c2)O[C@@H](c2ccc(C4CC4)s2)n2c-3cc3cc(-c4cnc([C@@H]5C[Si](C)(C)CN5C(=O)[C@H](N)c5ccccc5)[nH]4)ccc32)[nH]1)C(C)C; 1.09

input: Return reported log10(EC90); argument: COC(=O)NC(C(=O)N1CCC[C@H]1c1ncc(-c2ccc3c(c2)cc2n3[C@H](c3cnc(C4CC4)s3)Oc3cc(-c4cnc([C@@H]5C[Si](C)(C)CN5C(=O)[C@@H](NC(=O)OC)C5CCC(F)(F)CC5)[nH]4)cc(F)c3-2)[nH]1)C(C)C (some centres unmarked)
output: 0.14

input: For the compound COC(=O)NC(C(=O)N1CCC[C@H]1c1ncc(-c2ccc3c(c2)cc2n3[C@H](c3cnc(C4CC4)s3)Oc3cc(-c4cnc([C@@H]5C[Si](C)(C)CN5C(=O)[C@@H](NC(=O)OC)C5CCCCC5)[nH]4)cc(F)c3-2)[nH]1)C(C)C (some centres unmarked) , what log10(EC90) is on record?
output: 0.17

====

This section presents molecules with their documented EC90 values.
# Test system: HCV replicon GT1a_Y93H
# Test name: Cell-based HCV replicon assay, GT1a Y93H
# Settings: Hepatitis C virus, 72 h, read-out: GT1a_Y93H EC90
Dear colleague, please return just the value in nM, with no unit written.

Examples with answers:
COC(=O)N[C@H](C(=O)N1CCC[C@H]1c1ncc(-c2cc(F)c3c(c2)O[C@@H](c2ccc(C4CC4)s2)n2c-3cc3cc(-c4cnc([C@@H]5C[Si](C)(C)CN5C(=O)[C@@H](NC(=O)OC)C(C)C)[nH]4)ccc32)[nH]1)C(C)C; 0.561
COC(=O)NC(C(=O)N1CCC[C@H]1c1ncc(-c2ccc3c(c2)cc2n3[C@H](c3cnc(C4CC4)s3)Oc3cc(-c4cnc([C@@H]5C[Si](C)(C)CN5C(=O)[C@@H](NC(=O)OC)[C@@H]5CCOC(C)(C)C5)[nH]4)cc(F)c3-2)[nH]1)C(C)C (stereo partly shown); 0.271
COC(=O)NC(C(=O)N1CCC[C@H]1c1ncc(-c2ccc3c(c2)cc2n3[C@H](c3cnc(C4CC4)s3)Oc3cc(-c4cnc([C@@H]5C[Si](C)(C)CN5C(=O)[C@@H](NC(=O)OC)C5CCCCC5)[nH]4)cc(F)c3-2)[nH]1)C(C)C (stereo partly shown); 0.022

Proceed to the following item.
input: Report EC90 for COC(=O)N[C@H](C(=O)N1CCC[C@H]1c1ncc(-c2cc(F)c3c(c2)O[C@@H](c2cnc(C4CC4)s2)n2c-3cc3cc(-c4cnc([C@@H]5C[Si](C)(C)CN5C(=O)C(N)c5ccccc5)[nH]4)ccc32)[nH]1)C(C)C (stereo partly shown) please.
output: 0.334
